The reported numbers originate from paper PMC4503343.

molecular target: human P-gp Q132R (Homo sapiens, UniProt P08183, Q132R); experiment: Inhibition of rh123 efflux, Q132R mutant; format: cell-based; conditions: read-out: IC50 for inhibition of rh123 efflux; Q132R mutant, HEK293 cells, mean ± S.D.
Sequence (P08183 whole entry Q132R): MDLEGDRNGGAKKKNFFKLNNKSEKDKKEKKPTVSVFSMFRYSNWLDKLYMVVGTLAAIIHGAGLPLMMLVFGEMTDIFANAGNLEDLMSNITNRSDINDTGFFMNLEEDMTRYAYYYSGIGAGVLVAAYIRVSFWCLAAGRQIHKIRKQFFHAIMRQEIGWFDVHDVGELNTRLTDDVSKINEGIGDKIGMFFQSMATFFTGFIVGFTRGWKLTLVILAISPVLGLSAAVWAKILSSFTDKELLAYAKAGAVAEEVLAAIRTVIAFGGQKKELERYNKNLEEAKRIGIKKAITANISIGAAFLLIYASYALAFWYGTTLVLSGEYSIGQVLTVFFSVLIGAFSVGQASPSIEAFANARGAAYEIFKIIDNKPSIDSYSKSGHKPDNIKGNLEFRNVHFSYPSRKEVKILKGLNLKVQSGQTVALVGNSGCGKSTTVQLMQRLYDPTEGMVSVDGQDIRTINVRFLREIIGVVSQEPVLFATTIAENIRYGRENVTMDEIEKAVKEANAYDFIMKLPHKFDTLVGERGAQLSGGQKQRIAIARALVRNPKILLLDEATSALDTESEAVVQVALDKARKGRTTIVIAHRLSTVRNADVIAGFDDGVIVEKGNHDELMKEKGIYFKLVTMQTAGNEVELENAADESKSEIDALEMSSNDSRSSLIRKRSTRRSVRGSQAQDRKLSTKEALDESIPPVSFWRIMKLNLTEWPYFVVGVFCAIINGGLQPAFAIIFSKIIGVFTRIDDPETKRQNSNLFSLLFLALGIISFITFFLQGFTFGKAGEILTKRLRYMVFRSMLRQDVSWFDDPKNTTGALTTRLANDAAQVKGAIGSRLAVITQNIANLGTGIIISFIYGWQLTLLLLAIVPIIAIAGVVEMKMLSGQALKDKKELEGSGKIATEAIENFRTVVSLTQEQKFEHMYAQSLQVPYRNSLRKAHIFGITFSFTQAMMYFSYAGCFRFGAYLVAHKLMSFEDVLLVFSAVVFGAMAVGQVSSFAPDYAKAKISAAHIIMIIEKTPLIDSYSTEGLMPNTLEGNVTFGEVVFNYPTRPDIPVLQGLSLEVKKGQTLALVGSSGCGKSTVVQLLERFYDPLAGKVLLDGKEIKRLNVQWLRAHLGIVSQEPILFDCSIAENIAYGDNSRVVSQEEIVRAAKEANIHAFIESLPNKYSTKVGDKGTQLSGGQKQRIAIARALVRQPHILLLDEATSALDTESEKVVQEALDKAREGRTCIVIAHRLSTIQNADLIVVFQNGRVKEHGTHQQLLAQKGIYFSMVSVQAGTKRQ
reported_endpoint: IC50
Don't forget the unit after the value.

Give IC50 for O=C(CCc1ccccc1)c1ccccc1OCC(O)CN1CCCCC1 (stereo not shown)
1.41 µM

---

target: human P-gp Q132R/Y950F (Homo sapiens, UniProt P08183, Q132R/Y950F); assay: Inhibition of rh123 efflux, Q132R/Y950F mutant
Sequence (P08183 whole entry Q132R/Y950F): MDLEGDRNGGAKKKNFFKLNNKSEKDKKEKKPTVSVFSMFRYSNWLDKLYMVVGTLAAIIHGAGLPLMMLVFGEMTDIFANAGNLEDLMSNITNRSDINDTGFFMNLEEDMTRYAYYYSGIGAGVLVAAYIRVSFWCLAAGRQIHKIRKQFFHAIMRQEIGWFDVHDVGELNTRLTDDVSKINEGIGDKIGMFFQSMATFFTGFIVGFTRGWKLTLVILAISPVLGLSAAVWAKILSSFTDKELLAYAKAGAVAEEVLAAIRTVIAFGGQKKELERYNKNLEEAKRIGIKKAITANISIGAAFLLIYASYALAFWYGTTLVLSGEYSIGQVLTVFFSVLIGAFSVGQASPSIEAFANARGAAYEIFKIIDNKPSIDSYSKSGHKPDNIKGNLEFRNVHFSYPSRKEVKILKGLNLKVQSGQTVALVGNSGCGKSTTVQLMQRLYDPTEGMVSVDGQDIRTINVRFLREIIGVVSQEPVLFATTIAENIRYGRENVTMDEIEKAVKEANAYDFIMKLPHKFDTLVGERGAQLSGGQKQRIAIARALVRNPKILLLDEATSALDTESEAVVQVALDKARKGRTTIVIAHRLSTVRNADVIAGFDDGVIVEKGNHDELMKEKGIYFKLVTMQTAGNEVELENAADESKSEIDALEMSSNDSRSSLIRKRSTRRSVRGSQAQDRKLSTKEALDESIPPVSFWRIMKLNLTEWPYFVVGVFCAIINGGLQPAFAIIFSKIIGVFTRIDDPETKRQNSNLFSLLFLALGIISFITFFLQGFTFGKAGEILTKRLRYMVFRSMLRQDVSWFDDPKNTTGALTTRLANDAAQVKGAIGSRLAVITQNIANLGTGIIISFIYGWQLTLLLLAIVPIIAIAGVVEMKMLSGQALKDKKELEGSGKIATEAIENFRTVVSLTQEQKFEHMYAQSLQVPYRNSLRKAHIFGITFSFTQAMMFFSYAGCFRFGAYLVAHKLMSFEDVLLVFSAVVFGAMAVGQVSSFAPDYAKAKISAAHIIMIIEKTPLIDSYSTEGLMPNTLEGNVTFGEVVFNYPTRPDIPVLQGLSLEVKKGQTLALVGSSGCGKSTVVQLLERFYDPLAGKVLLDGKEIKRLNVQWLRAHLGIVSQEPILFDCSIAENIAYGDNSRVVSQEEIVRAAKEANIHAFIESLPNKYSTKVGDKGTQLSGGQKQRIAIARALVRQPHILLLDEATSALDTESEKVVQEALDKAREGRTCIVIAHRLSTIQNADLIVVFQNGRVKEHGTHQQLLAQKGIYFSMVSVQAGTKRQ
reported_endpoint: IC50 (µM)
Answers are plain numbers, in µM.

Give IC50 for CCCN(CC(O)COc1ccccc1C(=O)CCc1ccccc1)C(=O)c1ccccc1 (stereo not shown)
0.966

---

Please provide measured pIC50 for the entries that follow.
target: human P-gp wild-type (Homo sapiens); type: cell-based
Sequence (P08183 whole entry): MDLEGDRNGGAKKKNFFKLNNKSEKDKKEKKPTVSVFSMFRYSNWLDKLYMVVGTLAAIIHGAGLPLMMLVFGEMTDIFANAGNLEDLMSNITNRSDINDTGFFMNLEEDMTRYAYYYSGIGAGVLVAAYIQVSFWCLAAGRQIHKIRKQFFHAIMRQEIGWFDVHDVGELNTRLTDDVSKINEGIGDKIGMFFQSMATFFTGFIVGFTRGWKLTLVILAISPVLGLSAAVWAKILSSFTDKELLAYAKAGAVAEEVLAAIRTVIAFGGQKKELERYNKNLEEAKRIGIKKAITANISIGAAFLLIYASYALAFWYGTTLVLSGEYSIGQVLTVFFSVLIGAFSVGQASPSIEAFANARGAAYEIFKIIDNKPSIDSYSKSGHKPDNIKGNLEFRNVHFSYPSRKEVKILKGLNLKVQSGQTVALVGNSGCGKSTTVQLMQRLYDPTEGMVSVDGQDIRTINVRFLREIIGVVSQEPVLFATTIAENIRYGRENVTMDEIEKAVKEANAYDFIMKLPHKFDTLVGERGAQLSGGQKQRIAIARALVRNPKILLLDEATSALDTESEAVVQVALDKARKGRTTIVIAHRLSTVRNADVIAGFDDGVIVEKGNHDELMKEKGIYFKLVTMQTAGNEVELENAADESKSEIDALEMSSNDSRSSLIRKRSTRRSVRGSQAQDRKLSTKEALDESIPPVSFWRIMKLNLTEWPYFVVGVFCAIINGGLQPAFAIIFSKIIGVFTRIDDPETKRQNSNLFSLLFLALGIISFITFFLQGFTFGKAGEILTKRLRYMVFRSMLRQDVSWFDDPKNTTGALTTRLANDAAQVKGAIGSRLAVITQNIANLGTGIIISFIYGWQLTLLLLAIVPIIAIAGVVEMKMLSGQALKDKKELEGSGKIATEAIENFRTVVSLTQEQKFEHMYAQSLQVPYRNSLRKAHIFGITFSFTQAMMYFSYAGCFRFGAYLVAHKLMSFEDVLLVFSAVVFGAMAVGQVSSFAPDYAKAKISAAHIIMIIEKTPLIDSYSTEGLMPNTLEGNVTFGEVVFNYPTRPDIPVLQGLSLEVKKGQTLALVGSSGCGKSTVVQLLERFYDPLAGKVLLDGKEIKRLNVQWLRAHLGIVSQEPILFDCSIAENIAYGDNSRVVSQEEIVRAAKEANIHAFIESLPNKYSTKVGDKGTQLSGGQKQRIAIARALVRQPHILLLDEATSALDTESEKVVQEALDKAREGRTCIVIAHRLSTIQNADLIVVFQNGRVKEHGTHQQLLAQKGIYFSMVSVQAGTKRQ
One number for each entry, as −log10 of the molar value.

molecule: O=C(CCc1ccccc1)c1ccccc1OCC(O)CN1CCN(c2ccc(F)cc2)CC1 (centres unmarked) [GPV031]
reported_endpoint: pIC50
observed_value: 7.07

Consider now this further molecule.
Give pIC50 for CCCN(CC(O)COc1ccccc1C(=O)CCc1ccccc1)C(=O)c1ccccc1 (centres unmarked) [GPV366]
5.65

---

target: human P-gp wild-type (Homo sapiens); format: cell-based; conditions: read-out: IC50 for inhibition of rh123 efflux; wild-type P-gp, HEK293 cells, 37°C, mean ± S.D.
reported_endpoint: IC50 (nM)
Give bare numbers, in nM.

Give IC50 for O=C(CCc1ccccc1)c1ccccc1OCC(O)CN1CCCCC1 (stereo not shown)
518

---

molecular target: human P-gp Y950F (Homo sapiens, UniProt P08183, Y950F); test: Inhibition of rh123 efflux, Y950F mutant; assay type: cell-based; settings: read-out: IC50 for inhibition of rh123 efflux; Y950F mutant, HEK293 cells, mean ± S.D.
reported_endpoint: pIC50
Numbers only, as −log10 of the molar value.

Give pIC50 for O=C(CCc1ccccc1)c1ccccc1OCC(O)CN1CCCCC1 (stereo not shown)
5.87

---

molecular target: human P-gp Y953F (Homo sapiens, UniProt P08183, Y953F); assay: Inhibition of rh123 efflux, Y953F mutant; type: cell-based; settings: read-out: IC50 for inhibition of rh123 efflux; Y953F mutant, HEK293 cells, mean ± S.D.
Sequence (P08183 whole entry Y953F): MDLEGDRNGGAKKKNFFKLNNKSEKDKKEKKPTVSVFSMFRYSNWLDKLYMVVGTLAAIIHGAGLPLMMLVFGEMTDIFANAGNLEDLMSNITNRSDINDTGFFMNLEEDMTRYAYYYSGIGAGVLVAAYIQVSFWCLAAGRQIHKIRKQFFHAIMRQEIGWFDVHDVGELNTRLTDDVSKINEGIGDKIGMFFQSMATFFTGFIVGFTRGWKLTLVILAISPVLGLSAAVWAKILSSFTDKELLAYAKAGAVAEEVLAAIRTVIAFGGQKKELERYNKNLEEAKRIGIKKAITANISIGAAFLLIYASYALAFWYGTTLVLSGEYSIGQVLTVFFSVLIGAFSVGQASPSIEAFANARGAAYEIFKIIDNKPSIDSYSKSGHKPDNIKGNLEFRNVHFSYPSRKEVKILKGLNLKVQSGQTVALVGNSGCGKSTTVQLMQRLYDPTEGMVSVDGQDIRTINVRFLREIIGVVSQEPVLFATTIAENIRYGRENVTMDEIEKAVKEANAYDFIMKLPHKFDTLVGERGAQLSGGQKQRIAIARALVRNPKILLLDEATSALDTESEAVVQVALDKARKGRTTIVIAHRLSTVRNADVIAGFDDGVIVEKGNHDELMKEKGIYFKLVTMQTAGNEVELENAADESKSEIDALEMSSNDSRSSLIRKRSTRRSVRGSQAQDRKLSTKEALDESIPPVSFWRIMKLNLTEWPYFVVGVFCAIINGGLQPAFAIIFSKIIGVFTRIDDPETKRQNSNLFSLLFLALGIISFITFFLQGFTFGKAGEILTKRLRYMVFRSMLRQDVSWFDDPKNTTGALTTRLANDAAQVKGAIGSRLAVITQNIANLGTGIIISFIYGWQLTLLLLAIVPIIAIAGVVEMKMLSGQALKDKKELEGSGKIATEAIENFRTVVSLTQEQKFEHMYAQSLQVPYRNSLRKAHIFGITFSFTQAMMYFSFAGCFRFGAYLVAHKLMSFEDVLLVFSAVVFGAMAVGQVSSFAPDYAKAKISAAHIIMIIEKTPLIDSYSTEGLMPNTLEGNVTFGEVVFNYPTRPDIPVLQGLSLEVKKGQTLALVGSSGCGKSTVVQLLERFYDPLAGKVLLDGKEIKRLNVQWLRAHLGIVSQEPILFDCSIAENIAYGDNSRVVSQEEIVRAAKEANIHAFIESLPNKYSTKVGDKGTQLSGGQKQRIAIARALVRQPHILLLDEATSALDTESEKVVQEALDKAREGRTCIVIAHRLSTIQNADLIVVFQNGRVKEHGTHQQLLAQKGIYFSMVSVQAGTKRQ
reported_endpoint: pIC50
Answers are plain numbers, as −log10 of the molar value.

Give pIC50 for O=C(CCc1ccccc1)c1ccccc1OCC(O)CN1CCCCC1 (stereo not shown) [GPV005]
5.92

---

Please provide measured IC50 for the entries that follow.
molecular target: human P-gp Y950F (Homo sapiens, UniProt P08183, Y950F); assay: Inhibition of rh123 efflux, Y950F mutant; assay type: cell-based
Numbers only, in nM.

molecule: CCCN(CC(O)COc1ccccc1C(=O)CCc1ccccc1)C(=O)c1ccccc1 (centres unmarked)
unit_info: nM
IC50: 2980

Give IC50 for O=C(CCc1ccccc1)c1ccccc1OCC(O)CN1CCN(c2ccc(F)cc2)CC1 (centres unmarked)
238

---

biological target: human P-gp Y953F (Homo sapiens, UniProt P08183, Y953F); assay: Inhibition of rh123 efflux, Y953F mutant; assay type: cell-based
reported_endpoint: IC50 (µM)
Numbers only, in µM.

compound: O=C(CCc1ccccc1)c1ccccc1OCC(O)CN1CCN(c2ccc(F)cc2)CC1 (centres unmarked) [GPV031]
target_desc: human P-gp Y953F (Homo sapiens, UniProt P08183, Y953F)
reported_endpoint: IC50
observed_value: 0.287

Tell me its IC50 on human P-gp Y953F (Homo sapiens, UniProt P08183, Y953F): CCCN(CC(O)COc1ccccc1C(=O)CCc1ccccc1)C(=O)c1ccccc1 (centres unmarked) [GPV366]
15.9
